- TARGET UNDER TEST: T1, human SIRPβL/SIRPβ1v3 extracellular domain + His-tag (NP_001129316.1) (human, UniProt Q5TFQ8 30-371)
- T1 construct: also called hSIRPβ1v3; HuSIRPβ1v3
- T1 sequence (Q5TFQ8 other isoform, or with tags, fused parts or gaps): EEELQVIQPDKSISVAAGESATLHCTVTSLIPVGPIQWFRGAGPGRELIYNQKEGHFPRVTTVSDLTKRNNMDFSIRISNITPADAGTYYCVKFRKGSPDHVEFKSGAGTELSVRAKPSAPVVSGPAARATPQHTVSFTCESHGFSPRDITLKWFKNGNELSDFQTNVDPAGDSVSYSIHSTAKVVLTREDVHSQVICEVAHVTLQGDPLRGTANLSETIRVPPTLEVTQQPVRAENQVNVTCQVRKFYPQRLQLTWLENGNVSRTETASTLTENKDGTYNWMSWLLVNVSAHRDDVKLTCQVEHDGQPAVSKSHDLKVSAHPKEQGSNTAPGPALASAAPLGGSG
- TEST SUMMARY: SPR, Ab captured, ECD-His analyte
As shown below, each of these binders has a reported pKd value.
Would you please state pKd, meaning minus log10 of the concentration in mol/L, as a bare number?

As a guide, the following entries are already answered.
Antibody E17 (antibody, human IgG1, kappa, L234A L235A, V domains shown) VH: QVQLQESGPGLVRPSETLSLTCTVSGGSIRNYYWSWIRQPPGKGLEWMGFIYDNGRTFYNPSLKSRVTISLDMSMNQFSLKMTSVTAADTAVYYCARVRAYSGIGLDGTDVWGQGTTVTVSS VL: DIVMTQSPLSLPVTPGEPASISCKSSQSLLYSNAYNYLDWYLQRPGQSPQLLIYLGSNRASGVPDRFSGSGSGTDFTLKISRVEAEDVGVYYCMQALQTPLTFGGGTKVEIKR :: 8.27
Antibody E9 (antibody, human IgG1, kappa, L234A L235A, V domains shown) VH: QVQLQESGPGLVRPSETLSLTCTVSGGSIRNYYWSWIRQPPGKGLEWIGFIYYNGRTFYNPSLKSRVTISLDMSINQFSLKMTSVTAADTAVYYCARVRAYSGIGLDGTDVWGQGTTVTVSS VL: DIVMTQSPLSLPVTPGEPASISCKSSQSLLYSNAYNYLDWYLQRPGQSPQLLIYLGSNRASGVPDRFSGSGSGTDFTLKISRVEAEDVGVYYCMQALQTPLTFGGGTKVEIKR :: 8.50

Consider now this further binder.
What value of pKd has been recorded for this entry: Antibody E18 (antibody, human IgG1, kappa, L234A L235A, V domains shown) VH: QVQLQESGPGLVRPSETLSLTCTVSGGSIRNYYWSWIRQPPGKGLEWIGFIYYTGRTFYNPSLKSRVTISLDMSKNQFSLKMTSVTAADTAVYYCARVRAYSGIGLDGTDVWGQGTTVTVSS VL: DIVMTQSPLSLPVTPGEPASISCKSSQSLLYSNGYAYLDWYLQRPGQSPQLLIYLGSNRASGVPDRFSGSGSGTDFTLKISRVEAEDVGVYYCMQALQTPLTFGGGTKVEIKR 8.32

Ref: patent US20230012273A1
